abundance fitness for assorted variants
B1: Kinesin-like protein KIF16B, residues 1213 to 1273; numbered along this chain, Q96L93 (parent)
chain: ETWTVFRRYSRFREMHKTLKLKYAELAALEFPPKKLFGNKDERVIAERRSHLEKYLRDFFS

variants of: B1; assay: abundance fitness (aPCA) (normalised: wild type 0, dead -1); higher = more abundant; growth selection in yeast, the domain comes from the species named; details: Homo sapiens
Number, no unit, nothing else.

Reference set, count: 5
Request: abundance fitness lookup needed for ETWTVCRRYSRFREMHKTLKLKYAELAALEFPPKKLFGNKDERVIAERRSHLEKYLRDFFS [F6C] , thanks.
Response: -0.842

Request: abundance fitness lookup needed for ETWTVFRRYSRFREMHKTLKLKYAELAALEFPPKKLFGNKDEFVIAERRSHLEKYLRDFFS [R43F] , thanks.
Response: -0.249

Request: abundance fitness lookup needed for ETWTVFFRYSRFREMHKTLKLKYAELAALEFPPKKLFGNKDERVIAERRSHLEKYLRDFFS [R7F] , thanks.
Response: 0.078

Request: abundance fitness lookup needed for ETWTVFRRYSRFREMHKTLKLKYAELAALEFPPKKLFGNKDERAIAERRSHLEKYLRDFFS [V44A] , thanks.
Response: 0.029

Request: abundance fitness lookup needed for ETWTVFRRYSRFREMHKTLKLKYAELSALEFPPKKLFGNKDERVIAERRSHLEKYLRDFFS [A27S] , thanks.
Response: -0.099

---
Request: abundance fitness lookup needed for ETWTVFRRYSAFREMHKTLKLKYAELAALEFPPKKLFGNKDERVIAERRSHLEKYLRDFFS [R11A] , thanks.
Response: 0.206

Request: abundance fitness lookup needed for ETWTVFRRYSRFREMHKTLKLKPAELAALEFPPKKLFGNKDERVIAERRSHLEKYLRDFFS [Y23P] , thanks.
Response: -1.06

Request: abundance fitness lookup needed for ETWTVFRRYSRFREMHKTLKLKYAELAAVEFPPKKLFGNKDERVIAERRSHLEKYLRDFFS [L29V] , thanks.
Response: -0.033

Request: abundance fitness lookup needed for ETWTVFRRYSRFREMHKTLKLKYAELAALEFPPKKAFGNKDERVIAERRSHLEKYLRDFFS [L36A] , thanks.
Response: -0.41

Request: abundance fitness lookup needed for ETWTVFRRYSRFREMHKTLKLKYAELAALEFPPKKLFGNKDERVIAERRSHLEKYLRCFFS [D58C] , thanks.
Response: -0.024

Request: abundance fitness lookup needed for ETWTVFRRYSRFREMHKTLKLKYAELAALEFNPKKLFGNKDERVIAERRSHLEKYLRDFFS [P32N] , thanks.
Response: 0.209
